I'd appreciate it if you could supply Kd values for the items below.
biological target: human CA-XII (Homo sapiens, UniProt O43570); construct: purchased Creative BioMart CA12-261H; assay: Surface Plasmon Resonance (SPR) binding kinetics to recombinant human CA-XII (Biacore 8K, single-cycle kinetics, 1:1 binding model); conditions: Chelated Metal: Lu-175, 25° C., pH 7.4, read-out: CAXII KD
Sequence (O43570 25-354): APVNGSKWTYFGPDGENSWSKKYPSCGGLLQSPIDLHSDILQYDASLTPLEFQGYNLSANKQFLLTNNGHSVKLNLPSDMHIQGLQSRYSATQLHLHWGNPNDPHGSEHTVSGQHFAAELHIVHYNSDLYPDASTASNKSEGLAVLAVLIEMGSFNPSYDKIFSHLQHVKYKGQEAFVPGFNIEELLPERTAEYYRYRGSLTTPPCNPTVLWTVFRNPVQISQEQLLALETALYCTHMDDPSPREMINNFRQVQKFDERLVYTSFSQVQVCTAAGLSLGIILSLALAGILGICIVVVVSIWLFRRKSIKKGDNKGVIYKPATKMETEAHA

Worked examples follow.
smiles.data | test.system | Kd
CC(CCC(=O)N[C@@H](CC(=O)N[C@@H](CC(=O)N1CCN(C(=O)CN2CCN(CC(=O)O)CCN(CC(=O)O)CCN(CC(=O)O)CC2)C[C@H]1C(=O)NCCn1nnc(C23CC(C(=O)Nc4nnc(S(N)(=O)=O)s4)(C2)C3)c1C(=O)O)C(=O)O)C(=O)O)(c1ccc(O)cc1)c1ccc(O)cc1.[Lu+3] | human CA-XII (Homo sapiens, UniProt O43570) | 2.5 to 10 nM
NS(=O)(=O)c1nnc(NC(=O)C23CC(c4cn(CCNC(=O)[C@@H]5CN(C(=O)CN6CCN(CC(=O)O)CCN(CC(=O)O)CCN(CC(=O)O)CC6)CCN5C(=O)C[C@H](Nc5ncc(C(=O)NCCc6ccc(C(F)(F)F)cc6)cn5)C(=O)O)nn4)(C2)C3)s1.[Lu+3] | human CA-XII (Homo sapiens, UniProt O43570) | > 10 nM
NS(=O)(=O)c1nnc(NC(=O)C23CC(c4cn(CCNC(=O)[C@@H]5CN(C(=O)CN6CCN(CC(=O)O)CCN(CC(=O)O)CCN(CC(=O)O)CC6)CCN5C(=O)CNC(=O)C5(C(=O)O)CCN(C(=O)c6ccc(C7CC7)cc6)CC5)nn4)(C2)C3)s1.[Lu+3] | human CA-XII (Homo sapiens, UniProt O43570) | > 10 nM
NS(=O)(=O)c1nnc(NC(=O)C23CCC(c4cn(CCNC(=O)[C@@H]5CN(C(=O)CN6CCN(CC(=O)O)CCN(CC(=O)O)CCN(CC(=O)O)CC6)CCN5C(=O)CC[C@H](NC(=O)C[C@H](NC(=O)c5ccc(C6CCCCC6)cc5)C(=O)O)C(=O)O)nn4)(CC2)CC3)s1.[Lu+3] | human CA-XII (Homo sapiens, UniProt O43570) | < 1 nM
CC(CCCC(=O)N1CCC(C(N)=O)(C(=O)NCC(=O)NC2(C(=O)NCCn3cc(C45CCC(c6cn7nc(S(N)(=O)=O)sc7n6)(CC4)CC5)nn3)CCN(C(=O)CC[C@H](C(=O)O)N3CCN(CC(=O)O)CCN(CC(=O)O)CCN(CC(=O)O)CC3)CC2)CC1)(c1ccc(O)cc1)c1ccc(O)cc1.[Lu+3] | human CA-XII (Homo sapiens, UniProt O43570) | < 1 nM
CC(CCC(=O)N[C@@H](CC(=O)N[C@@H](CC(=O)N[C@@H](CCCCN1CCN(c2ccc(C(=O)Nc3nnc(S(N)(=O)=O)s3)cc2)CC1)C(=O)NCCOCCOCCNC(=O)CN1CCN(CC(=O)O)CCN(CC(=O)O)CCN(CC(=O)O)CC1)C(=O)O)C(=O)O)(c1ccc(O)cc1)c1ccc(O)cc1.[Lu+3] | human CA-XII (Homo sapiens, UniProt O43570) | > 10 nM

q: Please look up its Kd: CC(CCCC(=O)N1CCC(C(N)=O)(C(=O)NCC(=O)NC2(C(=O)NCCn3cc(C45CC(c6cn7nc(S(N)(=O)=O)sc7n6)(C4)C5)nn3)CCN(C(=O)CN3CCN(CC(=O)O)CCN(CC(=O)O)CCN(CC(=O)O)CC3)CC2)CC1)(c1ccc(O)cc1)c1ccc(O)cc1.[Lu+3]
a: 2.5 to 10 nM
